# System: Bacillus subtilis
# assayMethodText: Antibacterial activity against Bacillus subtilis
# Type: functional
endpointName: MIC (µM)
Give the value in µM but do not write µM after it.

Completed entries (count: 4):
>  <compound>
CCOC(=O)CC1Oc2cc(C)ccc2NC1=O (stereo not drawn)

>  <unitText>
µM

>  <MIC>
303

$$$$
>  <compound>
CCOC(=O)CC1Oc2ccc(Cl)cc2NC1=O (stereo not drawn)

>  <unitText>
µM

>  <MIC>
201

$$$$
>  <compound>
CCOC(=O)CC1Oc2cc([N+](=O)[O-])ccc2N(C)C1=O (stereo not drawn)

>  <unitText>
µM

>  <MIC>
185

$$$$
>  <compound>
O=C(O)CC1Oc2ccccc2NC1=O (stereo not drawn)

>  <unitText>
µM

>  <MIC>
212

$$$$

Consider the record given below.
Field request: MIC | item: CCOC(=O)CC1Oc2cc(N)ccc2NC1=O (stereo not drawn)
201

====

# System: Staphylococcus aureus
# assayMethodText: Antibacterial activity against Staphylococcus aureus ATCC 25923 after 24 hrs by disk diffusion method
# Assay type: functional
# conditionInfo: ATCC 25923, 24 h
Label met when MIC < 3000 µM; otherwise not met.

In the record for Cc1ccc2c(c1)OCC(=O)N2O , is MIC less than 3000 µM?
met

Also check O=C1COc2cc(F)ccc2N1O
met

====

# System: Bacillus subtilis
# assayMethodText: Antibacterial activity against Bacillus subtilis
# Type: functional
// reported MIC for each item listed
# unit: µM | format: bare number

These solved cases illustrate the format of a correct answer.
>  <molecule>
CCOC(=O)CC1Oc2cc([N+](=O)[O-])ccc2NC1=O (stereo not drawn)

>  <endpointName>
MIC

>  <assayValue>
241

$$$$
>  <molecule>
CCOC(=O)CC1Oc2ccc(C)cc2NC1=O (stereo not drawn)

>  <endpointName>
MIC

>  <assayValue>
89.2

$$$$

For the next question, use this molecule.
Given the molecule CCOC(=O)CC1Oc2ccc(C(=O)OCC)cc2NC1=O (stereo not drawn) , what is its reported MIC?
79.4

====

# maps each entry to its MIC
# Tested on: Staphylococcus aureus
# assayMethodText: Antibacterial activity against Staphylococcus aureus ATCC 25923 after 24 hrs by disk diffusion method
# Type: functional
# conditionInfo: ATCC 25923, 24 h
The response must be a number in µM with no trailing unit.

>  <compound>
COC(=O)c1ccc2c(c1)OCC(=O)N2O [7-MeOCO-D-DIBOA]

>  <endpointName>
MIC

>  <assayValue>
4480

$$$$

Entry under review: O=C1C(O)Oc2ccccc2N1O (centres undefined) . Reported MIC?
2760

And the next one, Cc1ccc2c(c1)OC(O)C(=O)N2O (centres undefined) ?
2560

What do you get for COc1ccc2c(c1)OC(O)C(=O)N2O (centres undefined) ?
1580

Again, but for O=C1COc2ccccc2N1O
2020

====

# Test system: Staphylococcus aureus
# assayMethodText: Antibacterial activity against Staphylococcus aureus ATCC 25923 after 24 hrs by disk diffusion method
# Type: functional
# conditionInfo: ATCC 25923, 24 h
endpointName: MIC (µM)
Response body: numeric value in µM, unit text excluded.

Some solved cases for reference:
>  <compound>
COc1ccc2c(c1)OCC(=O)N2O

>  <unitText>
µM

>  <MIC>
3410

$$$$
>  <compound>
COC1Oc2ccccc2N(O)C1=O (centres undefined)

>  <unitText>
µM

>  <MIC>
2560

$$$$
>  <compound>
N#Cc1ccc2c(c1)OC(O)C(=O)N2O (centres undefined)

>  <unitText>
µM

>  <MIC>
7280

$$$$

Which measured MIC belongs to O=C1C(O)Oc2cc([N+](=O)[O-])ccc2N1O (centres undefined) , tested on Staphylococcus aureus?
734
